The measured values listed here are drawn from patent US8962609B2.

- assay.target: TBK-1 (Homo sapiens (Human))
- Sequence (Q9UHD2 whole entry): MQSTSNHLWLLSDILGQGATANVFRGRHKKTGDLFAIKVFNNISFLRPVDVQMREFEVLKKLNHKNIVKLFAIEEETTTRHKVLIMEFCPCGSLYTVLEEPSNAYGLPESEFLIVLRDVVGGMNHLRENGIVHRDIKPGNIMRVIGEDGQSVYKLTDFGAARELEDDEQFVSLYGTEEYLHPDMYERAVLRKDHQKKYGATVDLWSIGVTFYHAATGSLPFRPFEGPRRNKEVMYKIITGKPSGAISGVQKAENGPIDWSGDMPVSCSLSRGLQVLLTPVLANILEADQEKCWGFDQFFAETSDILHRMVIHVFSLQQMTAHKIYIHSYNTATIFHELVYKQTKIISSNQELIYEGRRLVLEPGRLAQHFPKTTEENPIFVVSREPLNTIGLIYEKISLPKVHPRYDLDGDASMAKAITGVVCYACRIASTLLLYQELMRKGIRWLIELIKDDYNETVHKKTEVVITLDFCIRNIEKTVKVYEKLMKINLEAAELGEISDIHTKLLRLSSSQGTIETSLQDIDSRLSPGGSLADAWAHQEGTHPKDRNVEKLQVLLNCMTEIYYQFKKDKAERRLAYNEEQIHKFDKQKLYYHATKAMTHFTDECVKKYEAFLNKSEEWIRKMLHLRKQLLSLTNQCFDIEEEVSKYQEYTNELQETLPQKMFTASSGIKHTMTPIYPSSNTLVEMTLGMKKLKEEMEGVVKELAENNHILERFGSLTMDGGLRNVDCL
- procedure.summary: biochemical
- test.conditions: 20 μM ATP (apparent Km), 8 nM kinase, 2.5 hr; values are activity bands; read-out: Inhibition of TBK-1 IC50

{"columns": ["smiles.representation", "assay.target", "IC50"],
 "data": [
  ["CC(=O)Nc1ccc(Nc2nccc(-c3ccc(N4CC[C@@H](O)C4)c(C#N)c3)n2)cn1", "TBK-1 (Homo sapiens (Human))", "< 30 nM"],
  ["Cn1cc(Nc2nccc(-c3ccc(N4CC[C@H](O)C4)c(C#N)c3)n2)cn1", "TBK-1 (Homo sapiens (Human))", "< 30 nM"],
  ["COc1ccc(Nc2nccc(-c3ccc(N4CCCC4)c(C#N)c3)n2)cn1", "TBK-1 (Homo sapiens (Human))", "< 30 nM"]
]}

###

- assay.target: UniProt:Q9UHD2
- procedure.summary: biochemical
- test.conditions: 20 μM ATP (apparent Km), 8 nM kinase, 2.5 hr; values are activity bands; read-out: Inhibition of TBK-1 IC50
- Method: Compounds of the invention (synthesised as described below) were tested for activity against the IKKε and TBK-1 enzyme as follows: Inhibitions studies were performed using a time-resolved fluorescence-based Lanthascreen™ assay. Phosphorylation of a fluorescein-labelled substrate peptide is measured using terbium-labeled phosphospecific antibodies. Terbium is excited at 340 nm and the FRET energy transfer to fluorescein is measured at 495 and 520 nm. […]
Below: a set of entries, each annotated with reported IC50.

{"columns": ["smiles.representation", "assay.target", "IC50"],
 "data": [
  ["CC(=O)Nc1ccc(Nc2nccc(-c3ccc(N4CCC(C(N)=O)CC4)c(C#N)c3)n2)cn1", "UniProt:Q9UHD2", "30 to 300 nM"],
  ["CN(C)c1ccc(Nc2nccc(-c3ccc(N4CCCC4)c(C#N)c3)n2)cn1", "UniProt:Q9UHD2", "< 30 nM"],
  ["N#Cc1cc(-c2ccnc(Nc3ccn(CC(N)=O)n3)n2)ccc1N1CCCC1", "UniProt:Q9UHD2", "30 to 300 nM"],
  ["CN(C)CCNc1ccc(Nc2nccc(-c3ccc(N4CC[C@H](O)C4)c(C#N)c3)n2)cn1", "UniProt:Q9UHD2", "< 30 nM"],
  ["CN(C)CCNc1ccc(Nc2nccc(-c3ccc(N4CCC(C(N)=O)CC4)c(C#N)c3)n2)cn1", "UniProt:Q9UHD2", "30 to 300 nM"],
  ["Cc1cc(Nc2nccc(-c3ccc(N4CCCC4)c(C#N)c3)n2)on1", "UniProt:Q9UHD2", "30 to 300 nM"],
  ["N#Cc1cc(-c2ccnc(Nc3ccc(N4CCOCC4)nc3)n2)ccc1N1CCCC1", "UniProt:Q9UHD2", "< 30 nM"],
  ["CN1CCC(Nc2ccc(Nc3nccc(-c4ccc(N5CC[C@H](O)C5)c(C#N)c4)n3)cn2)CC1", "UniProt:Q9UHD2", "< 30 nM"],
  ["CC(=O)Nc1ccc(Nc2nccc(-c3ccc(N4CCCC4)c(C#N)c3)n2)cc1", "UniProt:Q9UHD2", "< 30 nM"]
]}

###

- assay.target: IKKε (Homo sapiens (Human), UniProt Q14164)
- Sequence (Q14164 whole entry): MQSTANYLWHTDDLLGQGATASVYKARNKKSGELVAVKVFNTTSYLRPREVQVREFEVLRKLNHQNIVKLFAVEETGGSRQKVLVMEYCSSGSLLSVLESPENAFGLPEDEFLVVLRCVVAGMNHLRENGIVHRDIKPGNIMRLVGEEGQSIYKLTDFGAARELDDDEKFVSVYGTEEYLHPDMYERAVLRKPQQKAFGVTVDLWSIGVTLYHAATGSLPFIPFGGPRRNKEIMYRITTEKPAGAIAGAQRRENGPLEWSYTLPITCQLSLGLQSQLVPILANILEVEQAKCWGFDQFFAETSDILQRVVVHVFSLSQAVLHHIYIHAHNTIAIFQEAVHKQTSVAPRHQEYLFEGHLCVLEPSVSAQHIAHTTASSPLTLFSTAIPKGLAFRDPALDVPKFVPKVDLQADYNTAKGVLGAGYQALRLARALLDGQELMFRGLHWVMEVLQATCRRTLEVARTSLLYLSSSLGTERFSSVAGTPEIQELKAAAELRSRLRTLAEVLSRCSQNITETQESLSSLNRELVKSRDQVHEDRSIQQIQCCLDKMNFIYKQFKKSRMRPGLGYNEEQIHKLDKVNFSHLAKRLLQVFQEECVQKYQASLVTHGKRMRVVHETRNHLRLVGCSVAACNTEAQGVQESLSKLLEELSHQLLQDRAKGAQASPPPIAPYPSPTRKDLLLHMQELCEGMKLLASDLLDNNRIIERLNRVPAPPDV
- procedure.summary: IKKε time-resolved fluorescence Lanthascreen kinase inhibition assay
- Format: biochemical
- test.conditions: 20 μM ATP (apparent Km), 2 nM kinase, 1 hr; values are activity bands; read-out: Inhibition of IKKε IC50
Below: a set of entries, each annotated with reported IC50.

{"columns": ["smiles.representation", "IC50"],
 "data": [
  ["Cc1cnc(Nc2nccc(-c3ccc(N4CCCC4)c(C#N)c3)n2)s1", "300 to 9000 nM"],
  ["N#Cc1cc(-c2ccnc(Nc3cccc(C(=O)O)c3)n2)ccc1N1CCCC1", "< 30 nM"],
  ["Cn1nc(C(N)=O)cc1Nc1nccc(-c2ccc(N3CCCC3)c(C#N)c2)n1", "30 to 300 nM"],
  ["N#Cc1cc(-c2ccnc(Nc3nc(C(N)=O)co3)n2)ccc1N1CCCC1", "300 to 9000 nM"],
  ["CNC(=O)[C@H]1CCCN1c1ccc(-c2ccnc(Nc3ccc(NC(C)=O)nc3)n2)cc1C#N", "300 to 9000 nM"],
  ["CN1CCC(NC(=O)c2cccc(Nc3nccc(-c4ccc(N5CCCC5)c(C#N)c4)n3)c2)CC1", "< 30 nM"],
  ["Cn1cc(Nc2nccc(-c3ccc(N4CC[C@H](O)C4)c(C#N)c3)n2)cn1", "< 30 nM"],
  ["Cn1cc(Nc2nccc(-c3ccc(N4CCC(C(N)=O)CC4)c(C#N)c3)n2)cn1", "< 30 nM"],
  ["CN(C)CCNc1ccc(Nc2nccc(-c3ccc(N4CC[C@H](F)C4)c(C#N)c3)n2)cn1", "< 30 nM"],
  ["CN(C)c1ccc(Nc2nccc(-c3ccc(N4CCCC4)c(C#N)c3)n2)cn1", "< 30 nM"],
  ["CN1CCN(c2ccc(Nc3nccc(-c4ccc(N5CCCC5)c(C#N)c4)n3)cn2)CC1", "< 30 nM"],
  ["Cn1nc(Nc2nccc(-c3ccc(N4CCCC4)c(C#N)c3)n2)cc1C(N)=O", "30 to 300 nM"],
  ["Cn1cnc(Nc2nccc(-c3ccc(N4CCCC4)c(C#N)c3)n2)c1", "30 to 300 nM"],
  ["CC(=O)Nc1ccc(Nc2nccc(-c3ccc(N4CCC[C@H]4C(N)=O)c(C#N)c3)n2)cn1", "30 to 300 nM"],
  ["CN(C)CCNc1ccc(Nc2nccc(-c3ccc(N4CCCC4)c(C#N)c3)n2)cn1", "< 30 nM"],
  ["CC(=O)Nc1ccc(Nc2nccc(-c3ccc(N4CC(O)C4)c(C#N)c3)n2)cn1", "< 30 nM"],
  ["CN1CCC(Nc2ccc(Nc3nccc(-c4ccc(N5CC[C@H](O)C5)c(C#N)c4)n3)cn2)CC1", "< 30 nM"],
  ["Cc1cc(Nc2nccc(-c3ccc(N4CCCC4)c(C#N)c3)n2)no1", "300 to 9000 nM"],
  ["CC(=O)Nc1ccc(Nc2nccc(-c3ccc(N4CC[C@@H](O)C4)c(C#N)c3)n2)cn1", "< 30 nM"],
  ["CC(=O)Nc1ccc(Nc2nccc(-c3ccc(N4CCC(C(N)=O)CC4)c(C#N)c3)n2)cn1", "< 30 nM"],
  ["CN(C)CCOc1ccc(Nc2nccc(-c3ccc(N4CCCC4)c(C#N)c3)n2)cn1", "< 30 nM"],
  ["N#Cc1cc(-c2ccnc(Nc3cccnc3)n2)ccc1N1CCCC1", "< 30 nM"],
  ["CC(=O)Nc1ccc(Nc2nccc(-c3ccc(N4CCOCC4)c(C#N)c3)n2)cn1", "30 to 300 nM"],
  ["COC[C@H]1CCCN1c1ccc(-c2ccnc(Nc3ccc(NC(C)=O)nc3)n2)cc1C#N", "< 30 nM"]
]}
